Where do the numbers come from? From patent US10947196B2.

The following compounds are shown together with reported AUC(0-t) values.
protocol-text: Rat pharmacokinetic studies
Type: in vivo, male SD rats
setup-conditions: male, SD, plasma, PO 5 mg/kg

compound	AUC(0-t)
CC(C)(C)NC[C@H](O)c1cccc(C#N)n1 [Compound 03-5]	2250 ng·h/mL

# get_value(readout='AUC(0-t)', item= CC(C)(C)NC[C@H](O)c1cccc(C(F)(F)F)n1 [Compound 03-3] )
4220 ng·h/mL

----------
study-target: β2 adrenergic receptor (Homo sapiens (Human))
Sequence (P07550 whole entry, species assumed): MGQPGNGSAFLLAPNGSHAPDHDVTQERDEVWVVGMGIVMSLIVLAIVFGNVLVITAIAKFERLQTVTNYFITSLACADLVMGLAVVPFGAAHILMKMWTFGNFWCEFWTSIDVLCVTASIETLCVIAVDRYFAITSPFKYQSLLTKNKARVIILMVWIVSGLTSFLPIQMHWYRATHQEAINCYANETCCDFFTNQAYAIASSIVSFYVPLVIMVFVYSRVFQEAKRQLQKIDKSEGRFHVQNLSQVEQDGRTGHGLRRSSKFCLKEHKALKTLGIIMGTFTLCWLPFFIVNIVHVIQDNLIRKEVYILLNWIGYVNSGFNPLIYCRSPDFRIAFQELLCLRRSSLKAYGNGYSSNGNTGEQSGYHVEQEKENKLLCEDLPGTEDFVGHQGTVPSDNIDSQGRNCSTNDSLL
protocol-text: cAMP Gs dynamic HTRF assay, β2 expressing CHO cells
Assay type: cell-based
setup-conditions: B2-AR; CHO-K cells; read-out: Average EC50 [Receptor subtype: B2-AR; Cell type: CHO-K]
The following compounds are shown together with reported EC50 values.

# get_value(readout='EC50', item= Cc1ccc([C@H](O)CNC(C)(C)C)nc1 )
> 1000 nM

# get_value(readout='EC50', item= Cc1ccccc1-c1cccc([C@@H](O)CNC(C)(C)C)n1 )
< 10 nM

# get_value(readout='EC50', item= CC(C)(COc1ccccc1)NC[C@@H](O)c1cccc(C(F)(F)F)n1 )
> 1000 nM
